# tested.system: human TASK-3 (Homo sapiens (Human))
# experimental.protocol: Inhibition of recombinant TASK-3 in stably transfected CHO cells (voltage-sensitive dye, KCl depolarization)
# Format: cell-based
# condition.parameters: depolarization by 40 mM potassium chloride
Could you mark each record Y if its IC50 falls strictly under 20 nM, and N if it equals or exceeds it?

# example entries with known answers
>>> group("O=C(c1ncoc1C1CC1)N1C2CCC1CN(Cc1c(-c3ccc(Cl)cc3)nc3ncccn13)C2")
"Y"
>>> group("O=C(C1CCCC1)N1C2CCC1CN(Cc1c(-c3ccc(Br)cc3)nc3ncccn13)C2")
"Y"
>>> group("CC(C)(C)OC(=O)N1CC2CCC1CN2Cc1c(-c2ccc(Cl)cc2)nc2ncccn12 (single isomer, unassigned) [Example 4]")
"N"
>>> group("COc1cccc(C(=O)N2C3COCC2CN(Cc2c(-c4ccc(Cl)cc4)nc4ncccn24)C3)c1")
"N"
>>> group("COc1ccc(C)c(C(=O)N2CC3CCC2CN3Cc2c(-c3ccc(C(C)C)cc3)nc3ncccn23)n1 (stereo not shown) [Example 78]")
"N"

API: the following record is the query input.
Input line: # TODO verify IC50 < 20 nM strictly for this compound: O=C(c1nc(C(F)(F)F)cs1)N1C2CCC1CN(Cc1c(-c3ccc(Cl)cc3)nc3ncccn13)C2
Output line: N

###

# tested.system: human TASK-3 (Homo sapiens (Human), UniProt Q9NPC2)
# Sequence (Q9NPC2 whole entry): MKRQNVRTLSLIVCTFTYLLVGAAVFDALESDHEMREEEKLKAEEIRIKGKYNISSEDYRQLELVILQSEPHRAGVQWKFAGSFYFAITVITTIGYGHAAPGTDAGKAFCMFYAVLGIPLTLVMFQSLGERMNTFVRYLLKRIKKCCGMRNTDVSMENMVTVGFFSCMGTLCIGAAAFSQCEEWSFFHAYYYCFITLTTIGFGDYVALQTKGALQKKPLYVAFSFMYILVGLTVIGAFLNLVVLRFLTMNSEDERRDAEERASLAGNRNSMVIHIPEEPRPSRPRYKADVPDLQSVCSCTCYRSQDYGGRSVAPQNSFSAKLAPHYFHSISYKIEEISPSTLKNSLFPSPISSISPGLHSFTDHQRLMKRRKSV
# experimental.protocol: Inhibition of recombinant TASK-3 in stably transfected CHO cells (voltage-sensitive dye, KCl depolarization)
# Type: cell-based
# condition.parameters: depolarization by 40 mM potassium chloride
pIC50: −log10 of the molar value.
Mark Satisfied for reported pIC50 of 7 or greater; mark Not satisfied for anything smaller.

# example entries with known answers
>>> group("O=C(c1ccccc1F)N1C2CCC1CN(Cc1c(-c3ccc(Br)cc3)nc3ncccn13)C2")
"Satisfied"
>>> group("COc1ccc(Cl)c(C(=O)N2C3COCC2CN(Cc2c(-c4ccc(Cl)cc4)nc4ncccn24)C3)n1")
"Not satisfied"
>>> group("CC(C)N(C)C(=O)N1C2CCC1CN(Cc1c(-c3ccc(Cl)cc3)nc3ncccn13)C2")
"Not satisfied"
>>> group("O=C(Nc1cccc(F)c1)N1C2CCC1CN(Cc1c(-c3ccc(Cl)cc3)nc3ncccn13)C2")
"Not satisfied"
>>> group("COc1cccc(C(=O)N2C3CCC2CN(Cc2c(-c4ccc(Cl)cc4)nc4ncccn24)C3)n1")
"Satisfied"

Input line: Form field: pIC50 at least 7? Entry: COc1cccc(C(=O)N2CC3CCC2CN3Cc2c(-c3ccc(Cl)cc3)nc3ncccn23)n1 (stereo not shown) [Example 44]
Output line: Not satisfied

Input line: Form field: pIC50 at least 7? Entry: CC(C)c1ccc(-c2nc3ncccn3c2CN2CC3CCC(C2)N3C(=O)c2ncoc2C2CC2)cc1
Output line: Not satisfied

Input line: Form field: pIC50 at least 7? Entry: O=C(c1ncoc1C1CC1)N1C2CCC1CN(Cc1c(-c3ccc(C4CC4)cc3)nc3ncccn13)C2
Output line: Not satisfied

Input line: Form field: pIC50 at least 7? Entry: O=C(c1ccccc1F)N1C2CCC1CN(Cc1c(-c3ccc(Cl)cc3)nc3ncccn13)C2
Output line: Satisfied

Input line: Form field: pIC50 at least 7? Entry: CC(C)NC(=O)N1C2CCC1CN(Cc1c(-c3ccc(Cl)cc3)nc3ncccn13)C2
Output line: Not satisfied

Input line: Form field: pIC50 at least 7? Entry: O=C(c1ccccc1F)N1C2CCC1CN(Cc1c(-c3ccc(C4CC4)cc3)nc3ncccn13)C2
Output line: Not satisfied

Input line: Form field: pIC50 at least 7? Entry: O=C(c1ccccc1F)N1CC2CCC1CN2Cc1c(-c2ccc(Cl)cc2)nc2ncccn12 (stereo not shown) [Example 42]
Output line: Not satisfied

The reported numbers originate from patent US11098063B2.
